- test_details: Antiproliferative activity against human MDA-MB-231-luc-D3H2LN cells assessed as inhibition of growth after 3 days by CellTiter Glo assay
- Format: functional
- reported_conditions: 72 h
measurement_kind: log10 GI50 (log10 of the value in µM)
Friendly reminder: values = log10 of GI50, unit µM.

Known results for compounds:
Cc1c(N2CCN(C)CC2)ccc2c3c(c(=O)oc12)CN(C(=O)c1ccc(NS(C)(=O)=O)c(OC(F)(F)F)c1)CC3 = -0.42
Cc1c(N2CCN(C)CC2)ccc2c3c(c(=O)oc12)CN(C(=O)c1cc(Cl)cc(NS(C)(=O)=O)c1)CC3 = 0.74
Cc1cc(C(=O)N2CCc3c(c(=O)oc4c(C)c(N5CCN(C)CC5)ccc34)C2)ccc1NS(C)(=O)=O = 0.89
Cc1c(N2CCN(C)CC2)ccc2c3c(c(=O)oc12)CN(C(=O)c1ccc(NS(C)(=O)=O)c(F)c1)CC3 = 0.30
Cc1c(N2CCN(C)[C@@H](C)C2)ccc2c3c(c(=O)oc12)CN(C(=O)c1ccc(NS(C)(=O)=O)c(Cl)c1)CC3 = -0.70

# input Requested field: log10 GI50. Item: `COc1cc(C(=O)N2CCc3c(c(=O)oc4c(C)c(N5CCN(C)CC5)ccc34)C2)ccc1NS(C)(=O)=O`
# output 1.00

# input # get_value(readout='log10 GI50', item= `Cc1c(N2CCN(C)[C@@H](C)C2)ccc2c3c(c(=O)oc12)CN(C(=O)c1ccc(NS(C)(=O)=O)c(OC(F)(F)F)c1)CC3` )
# output -0.47

====

Documented AUC at 24 h across a set of compounds
- test_details: AUC in BALBc mouse at 10 mg/kg, po measured for 24 hrs by LC-MS/MS analysis
- Format: ADME, organism-based
- reported_conditions: in vivo
// note: answer is a bare numeric in ng·h/mL

Cc1c(N2CCN(C)[C@@H](C)C2)ccc2c3c(c(=O)oc12)CN(C(=O)c1ccc(NS(C)(=O)=O)c(OC(F)(F)F)c1)CC3 = 64400

# input Item `Cc1c(N2CCN(C)CC2)ccc2c3c(c(=O)oc12)CN(C(=O)c1ccc(NS(C)(=O)=O)c(Cl)c1)CC3` has what recorded AUC at 24 h?
# output 25300

====

Examples of molecules with documented AUC at 24 h follow.
- test_details: AUC in BALBc mouse at 300 mg/kg, po measured for 24 hrs by LC-MS/MS analysis
- Assay type: ADME, organism-based
- reported_conditions: in vivo
Answer in µg·h/mL, number only, no unit symbol.

Cc1c(N2CCN(C)CC2)ccc2c3c(c(=O)oc12)CN(C(=O)c1ccc(NS(C)(=O)=O)c(Cl)c1)CC3 = 929

// switching to the query molecule
# input For `Cc1c(N2CCN(C)[C@@H](C)C2)ccc2c3c(c(=O)oc12)CN(C(=O)c1ccc(NS(C)(=O)=O)c(OC(F)(F)F)c1)CC3` , what is its reported AUC at 24 h?
# output 1630

====

Reported Cmax is given for each of the following compounds.
- test_details: Cmax in BALBc mouse at 10 mg/kg, po measured for 24 hrs by LC-MS/MS analysis
- Assay type: ADME, organism-based
- Set-up: dose 10 mg/kg, route oral
- reported_conditions: in vivo
Respond numerically; units are ng/mL and should not be typed.

Cc1c(N2CCN(C)[C@@H](C)C2)ccc2c3c(c(=O)oc12)CN(C(=O)c1ccc(NS(C)(=O)=O)c(OC(F)(F)F)c1)CC3 = 11400

# input Any idea what Cmax was measured for `Cc1c(N2CCN(C)CC2)ccc2c3c(c(=O)oc12)CN(C(=O)c1ccc(NS(C)(=O)=O)c(Cl)c1)CC3` ?
# output 3660

====

Recorded GI50, one value per entry.
- test_details: Antiproliferative activity against human MDA-MB-231-luc-D3H2LN cells assessed as inhibition of growth after 3 days by CellTiter Glo assay
- Format: functional
- reported_conditions: 72 h
Respond with a number, then the unit of measure.

Cc1c(N2CCN(C)CC2)ccc2c3c(c(=O)oc12)CN(C(=O)c1ccc(NS(C)(=O)=O)c(Br)c1)CC3 = 1600 nM

# input Which value of GI50 has been reported for `Cc1c(N2CCN(C)CC2)ccc2c3c(c(=O)oc12)CN(C(=O)c1ccc(NS(C)(=O)=O)c(Cl)c1)CC3` in the records?
# output 940 nM

# input Which GI50 reading was recorded for the compound `Cc1c(N2C[C@@H](C)N(C)[C@@H](C)C2)ccc2c3c(c(=O)oc12)CN(C(=O)c1ccc(NS(C)(=O)=O)c(Cl)c1)CC3` ?
# output 760 nM

# input // query GI50 value for entry `Cc1c(N2CCN(C)[C@H](C)C2)ccc2c3c(c(=O)oc12)CN(C(=O)c1ccc(NS(C)(=O)=O)c(Cl)c1)CC3`
# output 1700 nM

# input I would be grateful if you could share the reported GI50 for `Cc1c(N2CCN(C)CC2)ccc2c3c(c(=O)oc12)CN(C(=O)c1ccc(NS(C)(=O)=O)cc1)CC3` .
# output 6300 nM

# input Look up GI50: `Cc1c(N2CCN(C)CC2)ccc2c3c(c(=O)oc12)CN(C(=O)c1ccc2c(c1)CS(=O)(=O)N2)CC3.O=C(O)C(F)(F)F`
# output 19000 nM

====

Known logP of a selection of molecules
- test_details: Lipophilicity, logP of compound
- Type: physicochemical
- reported_conditions: octanol/water
Please state the value as a number alone, without comment.

Solved cases below.
Cc1c(N2CCN(C)CC2)ccc2c3c(c(=O)oc12)CN(C(=O)c1ccc(NS(C)(=O)=O)cc1)CC3 = 1.6
Cc1c(N2CCN(C)CC2)ccc2c3c(c(=O)oc12)CN(C(=O)c1ccc(NS(C)(=O)=O)c(Cl)c1)CC3 = 1.8
Cc1c(N2CCN(C)[C@@H](C)C2)ccc2c3c(c(=O)oc12)CN(C(=O)c1ccc(NS(C)(=O)=O)c(Cl)c1)CC3 = 2

# input Using the record for `Cc1c(N2CCN(C)CC2)ccc2c3c(c(=O)oc12)CN(C(=O)c1ccc(NS(C)(=O)=O)c(OC(F)(F)F)c1)CC3` , report its logP.
# output 1.9

# input Given the entry `Cc1c(N2CCN(C)CC2)ccc2c3c(c(=O)oc12)CN(C(=O)c1cc(Cl)cc(NS(C)(=O)=O)c1)CC3` , report its measured logP.
# output 1.8

# input Using the record for `Cc1c(N2CCN(C)CC2)ccc2c3c(c(=O)oc12)CN(C(=O)c1ccc(NS(C)(=O)=O)c(Br)c1)CC3` , report its logP.
# output 1.9

====

- assay_target: C-1-tetrahydrofolate synthase, cytoplasmic (Homo sapiens, UniProt P11586)
- Sequence (P11586 whole entry): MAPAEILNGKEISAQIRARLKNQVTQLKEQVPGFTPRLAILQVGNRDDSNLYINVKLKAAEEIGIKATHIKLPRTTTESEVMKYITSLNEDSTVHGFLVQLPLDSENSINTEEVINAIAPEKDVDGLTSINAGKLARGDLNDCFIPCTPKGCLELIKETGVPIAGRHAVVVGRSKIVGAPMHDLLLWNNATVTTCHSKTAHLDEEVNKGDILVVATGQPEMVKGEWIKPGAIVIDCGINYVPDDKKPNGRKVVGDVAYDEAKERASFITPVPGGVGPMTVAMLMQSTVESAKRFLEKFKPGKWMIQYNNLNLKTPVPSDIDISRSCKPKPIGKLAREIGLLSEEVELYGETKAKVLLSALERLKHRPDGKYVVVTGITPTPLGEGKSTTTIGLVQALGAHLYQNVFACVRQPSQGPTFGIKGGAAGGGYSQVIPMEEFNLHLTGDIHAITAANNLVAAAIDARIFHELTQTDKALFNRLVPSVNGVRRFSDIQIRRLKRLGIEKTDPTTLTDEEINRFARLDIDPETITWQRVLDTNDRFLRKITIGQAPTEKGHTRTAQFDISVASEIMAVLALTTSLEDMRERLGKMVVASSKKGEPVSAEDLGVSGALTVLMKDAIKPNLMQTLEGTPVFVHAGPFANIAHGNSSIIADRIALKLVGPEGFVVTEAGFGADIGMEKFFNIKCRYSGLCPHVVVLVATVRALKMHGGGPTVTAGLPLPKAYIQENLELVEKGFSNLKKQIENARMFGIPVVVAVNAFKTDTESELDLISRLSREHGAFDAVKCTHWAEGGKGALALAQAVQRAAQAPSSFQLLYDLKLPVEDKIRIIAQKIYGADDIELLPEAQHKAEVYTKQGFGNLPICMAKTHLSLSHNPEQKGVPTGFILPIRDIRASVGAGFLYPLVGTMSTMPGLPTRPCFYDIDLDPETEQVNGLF
pIC50: −log10 of the molar value.
# pIC50 annotations

As a guide, the following entries are already answered.
CN1CCC(Oc2ccc3c4c(c(=O)oc3c2)CN(C(=O)c2ccc(C(=O)O)cc2)CC4)CC1 = 4.57
CN1CCN(c2ccc3c4c(c(=O)oc3c2)CN(C(=O)c2ccc(C(=O)O)cc2)CC4)CC1 = < 4.52
Cc1c(N2CCN(C)CC2)ccc2c3c(c(=O)oc12)CN(C(=O)c1ccc(NS(C)(=O)=O)cc1)CC3 = < 4.52
Cc1cc(C(=O)N2CCc3c(c(=O)oc4c(C)c(N5CCN(C)CC5)ccc34)C2)ccc1NS(C)(=O)=O = < 4.52

# input Query pIC50 on C-1-tetrahydrofolate synthase, cytoplasmic (Homo sapiens, UniProt P11586) for `CN(C)c1ccc(-c2ccc3c4c(c(=O)oc3c2)CN(C(=O)c2ccc(C(=O)O)cc2)CC4)cc1`
# output 5.27

# input I'm curious: which pIC50 was measured for `Cc1cccc2oc(=O)c3c(c12)CCN(C(=O)c1ccc(C(=O)O)cc1)C3` tested on C-1-tetrahydrofolate synthase, cytoplasmic (Homo sapiens, UniProt P11586)?
# output < 4.52

====

- test_details: Half life in BALBc mouse at 10 mg/kg, po measured for 24 hrs by LC-MS/MS analysis
- Type: ADME, organism-based
- reported_conditions: in vivo
measurement_kind: half-life (h)
Note: unit h is implicit; provide only the numeric part.

Cc1c(N2CCN(C)CC2)ccc2c3c(c(=O)oc12)CN(C(=O)c1ccc(NS(C)(=O)=O)c(Cl)c1)CC3 = 2.73

Proceed to the following item.
# input Query (compound): `Cc1c(N2CCN(C)[C@@H](C)C2)ccc2c3c(c(=O)oc12)CN(C(=O)c1ccc(NS(C)(=O)=O)c(OC(F)(F)F)c1)CC3` ; field requested: half-life
# output 2.21

====

Some compounds, each annotated with its measured remaining at 0.5 h, 1 µM.
- test_details: Metabolic stability in mouse liver microsomes assessed as remaining parent compound at 1 uM after 0.5 hrs
- Type: ADME, Microsome
- reported_conditions: read-out: Stability
Form entry: value (%) — number only.

Cc1c(N2CCN(C)[C@@H](C)C2)ccc2c3c(c(=O)oc12)CN(C(=O)c1ccc(NS(C)(=O)=O)c(OC(F)(F)F)c1)CC3 = 66

# input Please report the recorded remaining at 0.5 h, 1 µM for `Cc1c(N2CCN(C)CC2)ccc2c3c(c(=O)oc12)CN(C(=O)c1ccc(NS(C)(=O)=O)c(Cl)c1)CC3` .
# output 91

Hello, the source for this data is ChEMBL document CHEMBL4334513, in case you need it.
